tested on: A498; assay: Growth inhibition of human A498 cells after 48 hrs by sulforhodamine B assay; type: functional; details: A498, 48 h
reported-endpoint: GI50 (µM)
Numbers only, in µM.

# count of solved cases: 4
compound: CC1CCCc2c1nc(N)c(C#N)c2-c1cccn1C (configuration not stated)
GI50 [µM]: 91.2
--
compound: Cn1cccc1-c1cc(-c2ccccc2)[nH]c(=O)c1C#N
GI50 [µM]: 27.5
--
compound: Cn1cccc1-c1cc(-c2ccccc2)nc(N)c1C#N
GI50 [µM]: 91.2
--
compound: COc1ccc(-c2cc(-c3cccn3C)c(C#N)c(N)n2)cc1OC
GI50 [µM]: 83.2

Moving on to the next compound.
INPUT: Give the measured GI50 for Cn1cccc1-c1cc(-c2cccs2)[nH]c(=O)c1C#N
OUTPUT: 17.8

----------
test: Antioxidant activity assessed as DPPH radical scavenging activity at 10^-4 M incubated for 30 mins by spectrophotometry; assay type: physicochemical; settings: 0.5 h, 100 µM
reported-endpoint: inhibition (INH) (%)
Give bare numbers, in %.

compound: Cn1cccc1-c1cc(-c2ccccc2)nc(N)c1C#N
reported-endpoint: inhibition (INH)
data-value: 12

compound: COc1ccc(-c2cc(-c3cccn3C)c(C#N)c(=O)[nH]2)cc1OC
reported-endpoint: inhibition (INH)
data-value: 17

compound: CC1CCCc2c1nc(N)c(C#N)c2-c1cccn1C (stereo not drawn)
reported-endpoint: inhibition (INH)
data-value: 9

compound: CC1CCCc2c1nc(NC(=S)NC(=O)c1ccccc1)c(C#N)c2-c1cccn1C (stereo not drawn)
reported-endpoint: inhibition (INH)
data-value: 11

compound: CC1CCCc2c1nc1[nH]c(=S)nc(N)c1c2-c1cccn1C (stereo not drawn)
reported-endpoint: inhibition (INH)
data-value: 14

compound: Cc1cc(C(C)(C)C)c(O)c(C(C)(C)C)c1 [BUTYLATED HYDROXYTOLUENE]
reported-endpoint: inhibition (INH)
data-value: 20

// each compound listed below needs its inhibition (INH)
1. COc1ccc(-c2cc(-c3cccn3C)c(C#N)c(N)n2)cc1OC
2. CCSc1nc(N)c2c(-c3cccn3C)c3c(nc2n1)C(C)CCC3 (stereo not drawn)

OUTPUT:
1: 19; 2: 16

----------
system: HL-60(TB); assay: Growth inhibition of human HL-60(TB) cells after 48 hrs by sulforhodamine B assay; type: functional; details: HL-60, 48 h
reported-endpoint: GI50

compound: CC1CCCc2c1nc(N)c(C#N)c2-c1cccn1C (stereo not drawn)
reported-endpoint: GI50
data-value: 0.42 µM

The following compounds each have a reported value; give each one's GI50.
1. COc1ccc(-c2cc(-c3cccn3C)c(C#N)c(N)n2)cc1OC
2. Cn1cccc1-c1cc(-c2ccccc2)nc(N)c1C#N
3. Cn1cccc1-c1cc(-c2cccs2)nc(N)c1C#N
4. CC1CCCc2c1[nH]c(=O)c(C#N)c2-c1cccn1C (stereo not drawn)
5. Cn1cccc1-c1cc(-c2cccs2)[nH]c(=O)c1C#N
6. COc1ccc(-c2cc(-c3cccn3C)c(C#N)c(=O)[nH]2)cc1OC
7. Cn1cccc1-c1cc(-c2ccccc2)[nH]c(=O)c1C#N

OUTPUT:
["19.5 µM", "0.76 µM", "> 100 µM", "> 100 µM", "> 100 µM", "> 100 µM", "> 100 µM"]
